assay: Cytotoxicity against human HuH5.2 cells by MTS assay; type: cell-based, Huh-5-2
QUANTITY: CC50

Consider the following illustrative entries.
• CS(=O)(=O)Nc1ccc(NC(=O)c2nn(-c3ccccc3)c3c2NS(=O)(=O)c2ccccc2-3)cc1 = > 239 µM
• CS(=O)(=O)Nc1ccc(NC(=O)c2nn(-c3cccc([N+](=O)[O-])c3)c3c2NS(=O)(=O)c2ccccc2-3)cc1 = > 220 µM

// query Read off the recorded CC50 for `CS(=O)(=O)Nc1ccc(NC(=O)c2nn(-c3ccccc3[N+](=O)[O-])c3c2NS(=O)(=O)c2ccccc2-3)cc1`
// result > 220 µM
